System Under Test: human RXFP4 (Homo sapiens)
Construct: expressed in transfected cells; host or cells: HEK293T
Sequence (Q8TDU9 whole entry): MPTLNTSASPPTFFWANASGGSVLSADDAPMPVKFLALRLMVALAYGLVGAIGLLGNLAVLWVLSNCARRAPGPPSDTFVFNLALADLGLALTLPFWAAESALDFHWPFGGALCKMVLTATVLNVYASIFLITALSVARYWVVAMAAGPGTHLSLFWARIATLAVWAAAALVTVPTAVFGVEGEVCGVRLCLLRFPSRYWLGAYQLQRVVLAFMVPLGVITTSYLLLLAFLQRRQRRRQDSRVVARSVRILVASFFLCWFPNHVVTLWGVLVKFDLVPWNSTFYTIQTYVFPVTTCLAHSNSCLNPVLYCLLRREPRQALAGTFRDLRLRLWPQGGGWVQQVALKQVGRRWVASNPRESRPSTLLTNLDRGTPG
Method: Receptor binding assay, competition with NanoLuc-conjugated R3/I5 tracer
Conditions Used: HEK293T cells transiently overexpressing human RXFP4; 0.5 nM NanoLuc-conjugated R3/I5 tracer; 21 °C, 2 h; mean ± SE, n = 3; SEM
Procedure: Figure 3 Receptor binding activities of the mature INSL5 and R3/I5 mutants towards RXFP3 and RXFP4. A NanoLuc-conjugated R3/I5 peptide was used as tracer and HEK293T cells transiently overexpressing human RXFP3 or human RXFP4 were used as receptor source. The tracer concentration used in these assays was 0.5 nM. […] The measured data were expressed as mean ± SE (n = 3) and fitted to sigmoidal curves using the software SigmaPlot 10.0. […]
No end group written: not given here.
We begin with a simple list: items and their reported pIC50 RXFP4.
// keep it numeric: no unit symbol after the value

Record excerpt, results attached:
| Substance | Numeric Readout |
| --- | --- |
| [G(B23)A,G(B24)S]R3/I5: recombinant mature two-chain R3/I5 mutant (chain 1 RAAPYGVRLCGREFIRAVIFTCASSRW; chain 2 QDLQTLCCTDGCSMTDLSALC; disulfide (positions not given here); not fully specified; also: A-chain N-terminal pyroglutamate likely) | 8.06 |
| [L(B9)R]INSL5: recombinant mature two-chain INSL5 mutant (Insulin-like peptide INSL5 B … KESVRLCGREYIRTVIYICASSRW; Insulin-like peptide INSL5 A … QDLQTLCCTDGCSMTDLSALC; ends and bridges not checked; cysteine pairing not given here; UniProt Q9Y5Q6 23-46; Q9Y5Q6 115-135, looked up, variant L9R) | 7.85 |
| [Y(B17)F]INSL5: recombinant mature two-chain INSL5 mutant (Insulin-like peptide INSL5 B … KESVRLCGLEYIRTVIFICASSRW; Insulin-like peptide INSL5 A … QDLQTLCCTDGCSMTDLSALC; ends and bridges not checked; cysteine pairing not given here; UniProt Q9Y5Q6 23-46; Q9Y5Q6 115-135, looked up, variant Y17F) | 7.23 |
| [F(B20)Y,G(B23)A,G(B24)S]R3/I5: recombinant mature two-chain R3/I5 mutant (chain 1 RAAPYGVRLCGREFIRAVIYTCASSRW; chain 2 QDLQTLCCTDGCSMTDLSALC; disulfide (positions not given here); not fully specified; also: A-chain N-terminal pyroglutamate likely) | 7.91 |
| [Y(B5)E,R(B12)L,F(B20)Y,G(B23)A,G(B24)S]R3/I5: recombinant mature two-chain R3/I5 mutant (chain 1 RAAPEGVRLCGLEFIRAVIYTCASSRW; chain 2 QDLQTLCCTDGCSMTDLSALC; disulfide (positions not given here); not fully specified; also: A-chain N-terminal pyroglutamate likely) | 7.61 |

Please turn your attention to the following entry.
Request: Item [L(B9)R,Y(B17)F]INSL5: recombinant mature two-chain INSL5 mutant (Insulin-like peptide INSL5 B … KESVRLCGREYIRTVIFICASSRW; Insulin-like peptide INSL5 A … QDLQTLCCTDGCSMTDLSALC; ends and bridges not checked; cysteine pairing not given here; UniProt Q9Y5Q6 23-46; Q9Y5Q6 115-135, looked up, variant L9R Y17F) has what recorded pIC50 RXFP4?
Result: 7.33

====

System Under Test: human RXFP3 (Homo sapiens, UniProt Q9NSD7)
Construct: expressed in transfected cells; host or cells: HEK293T
Sequence (Q9NSD7 1-469): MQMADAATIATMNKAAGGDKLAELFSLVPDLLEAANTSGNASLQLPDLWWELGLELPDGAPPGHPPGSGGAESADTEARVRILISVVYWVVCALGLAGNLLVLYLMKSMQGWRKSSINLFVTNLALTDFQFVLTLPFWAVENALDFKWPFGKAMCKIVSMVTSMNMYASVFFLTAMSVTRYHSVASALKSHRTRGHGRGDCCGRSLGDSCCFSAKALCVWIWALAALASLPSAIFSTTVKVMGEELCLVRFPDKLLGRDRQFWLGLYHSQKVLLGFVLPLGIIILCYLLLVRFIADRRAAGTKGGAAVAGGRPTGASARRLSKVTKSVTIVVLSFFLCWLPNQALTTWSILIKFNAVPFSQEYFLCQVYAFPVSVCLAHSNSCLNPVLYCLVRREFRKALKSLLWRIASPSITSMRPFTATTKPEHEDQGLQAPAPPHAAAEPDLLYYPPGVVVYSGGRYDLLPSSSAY
Method: Receptor binding assay, competition with NanoLuc-conjugated R3/I5 tracer
Conditions Used: HEK293T cells transiently overexpressing human RXFP3; 0.5 nM NanoLuc-conjugated R3/I5 tracer; 21 °C, 2 h; mean ± SE, n = 3; SEM
No end group written: not given here.
Measured Metric: pIC50 RXFP3
// keep it numeric: no unit symbol after the value

| Substance | Numeric Readout |
| --- | --- |
| [R(B12)L,G(B23)A,G(B24)S]R3/I5: recombinant mature two-chain R3/I5 mutant (chain 1 RAAPYGVRLCGLEFIRAVIFTCASSRW; chain 2 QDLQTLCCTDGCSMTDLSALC; disulfide (positions not given here); not fully specified; also: A-chain N-terminal pyroglutamate likely) | 8.38 |

Request: Item [F(B20)Y,G(B23)A,G(B24)S]R3/I5: recombinant mature two-chain R3/I5 mutant (chain 1 RAAPYGVRLCGREFIRAVIYTCASSRW; chain 2 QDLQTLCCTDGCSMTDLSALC; disulfide (positions not given here); not fully specified; also: A-chain N-terminal pyroglutamate likely) has what recorded pIC50 RXFP3?
Result: 8.45

Request: Item [R(B12)L,F(B20)Y,G(B23)A,G(B24)S]R3/I5: recombinant mature two-chain R3/I5 mutant (chain 1 RAAPYGVRLCGLEFIRAVIYTCASSRW; chain 2 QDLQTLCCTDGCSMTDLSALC; disulfide (positions not given here); not fully specified; also: A-chain N-terminal pyroglutamate likely) has what recorded pIC50 RXFP3?
Result: 8.40
